# SUBJECT_OF_TEST: HIV-1 integrase (Human immunodeficiency virus type 1 group M subtype B, UniProt P04585)
# EXPERIMENTAL_PROTOCOL: HIV-1 integrase inhibition assay (radiolabeled duplex substrate corresponding to the U5 end of the HIV LTR)
# Assay type: biochemical
log10 of IC50 values, listed per item
Parameter value (number): base-10 log of IC50 in µM.

Field: example entries. Status: answers known.
> print(dat)
                                   compound        measure  reported
1  O=C(C=Cc1ccc(O)c(O)c1)NC(Cc1cn(-c2ccc([N+](=O)[O-])cc2[N+](=O)[O-])cn1)C(=O)NNC(=O)c1ccccc1O (stereo not drawn)  log10 of IC50     -0.60
2  O=C(/C=C/c1ccc(O)c(O)c1)N[C@@H](Cc1ccc(O)cc1)C(=O)NNC(=O)c1ccccc1O  log10 of IC50     -0.09
3  O=C(O)CC[C@H](NC(=O)c1cc2ccccc2n1Cc1ccc(F)cc1)C(=O)NCc1ccccc1  log10 of IC50      0.97
4  COc1ccc(NC(=O)[C@H](CCC(=O)NC(c2ccccc2)(c2ccccc2)c2ccccc2)NC(=O)c2ccc(OCc3ccc(F)cc3)c(OCc3ccc(F)cc3)c2)cc1O  log10 of IC50      0.79
5  O=C(/C=C/c1ccc(O)c(O)c1)N[C@@H](Cc1ccc(O)c(O)c1)C(=O)NNC(=O)c1ccccc1O  log10 of IC50     -0.42

Now look at this one.
Lab note: record log10 of IC50 of "Cc1ccc(C(NC(=O)CC[C@H](NC(=O)c2ccc(O)c(O)c2)C(=O)NCCc2ccc(O)c(O)c2)(c2ccccc2)c2ccccc2)cc1" tested on HIV-1 integrase (Human immunodeficiency virus type 1 group M subtype B, UniProt P04585).
0.11

---

# SUBJECT_OF_TEST: HIV-1 integrase (Human immunodeficiency virus type 1 group M subtype B)
# EXPERIMENTAL_PROTOCOL: HIV-1 integrase inhibition assay (radiolabeled duplex substrate corresponding to the U5 end of the HIV LTR)
# Type: biochemical
# CONDITION_DETAILS: Table 1, compounds of formula II′; read-out: IC50
pIC50 values, listed per item
pIC50 here: minus log base 10 of the concentration, concentration in moles per litre.

Lab note: record pIC50 of "Cc1ccc(C(c2ccccc2)(c2ccccc2)n2cnc(C[C@H](NC(=O)c3ccc(O)c([N+](=O)[O-])c3)C(=O)NCCc3ccc(O)c(O)c3)c2)cc1" tested on HIV-1 integrase (Human immunodeficiency virus type 1 group M subtype B).
6.24

Lab note: record pIC50 of "Cc1ccc(C(c2ccccc2)(c2ccccc2)n2cnc(C[C@H](NC(=O)CCc3ccc(O)c(O)c3)C(=O)NCCc3ccc(O)c(O)c3)c2)cc1" tested on HIV-1 integrase (Human immunodeficiency virus type 1 group M subtype B).
6.15

---

pIC50 values, listed per item
# SUBJECT_OF_TEST: HIV-1 integrase (Human immunodeficiency virus type 1 group M subtype B)
# EXPERIMENTAL_PROTOCOL: HIV-1 integrase inhibition assay (radiolabeled duplex substrate corresponding to the U5 end of the HIV LTR)
# Type: biochemical
pIC50 here: minus log base 10 of the concentration, concentration in moles per litre.

Field: example entries. Status: answers known.
MOLECULE	pIC50
O=C(/C=C/c1ccc(O)c(O)c1)NCCCC[C@H](NC(=O)/C=C/c1ccc(O)c(O)c1)C(=O)OCc1ccccc1 [Example 6, Nα,Nε-Dicaffeoyl-L-lysine Benzyl Ester]	5.57
O=C(N[C@H](Cc1cn(C(c2ccccc2)(c2ccccc2)c2ccccc2)cn1)C(=O)NCCc1ccc(O)c(O)c1)c1ccc(O)c([N+](=O)[O-])c1 [Example 18]	6.25
O=C(N[C@@H](Cc1cn(C(c2ccccc2)(c2ccccc2)c2ccccc2)cn1)C(=O)NCc1ccc(O)c(O)c1)c1cc(O)c2cccc(O)c2n1 [Example 70]	6.39
COc1ccc(NC(=O)[C@H](CCC(=O)NC(c2ccccc2)(c2ccccc2)c2ccccc2)NC(=O)c2cc3cc(F)ccc3[nH]2)cc1O [Example 113]	5.19
O=C(N[C@@H](Cc1cn(C(c2ccccc2)(c2ccccc2)c2ccccc2)cn1)C(=O)NCCc1ccc(O)c(O)c1)c1cc(O)c(O)c(O)c1 [Example 39]	6.65
Cc1ccc(C(NC(=O)CC[C@H](NC(=O)/C=C/c2cccc([N+](=O)[O-])c2)C(=O)NCCc2ccc(O)c(O)c2)(c2ccccc2)c2ccccc2)cc1 [Example 50]	5.40

Give a short answer stating reported pIC50 for O=C(/C=C/c1cccc([N+](=O)[O-])c1)N[C@@H](Cc1cn(C(c2ccccc2)(c2ccccc2)c2ccccc2)cn1)C(=O)NCCc1ccc(O)c(O)c1 [Example 35] .
5.92

Give a short answer stating reported pIC50 for Cc1ccc(C(NC(=O)CC[C@H](NC(=O)/C=C/c2ccc(O)c(O)c2)C(=O)Nc2nccs2)(c2ccccc2)c2ccccc2)cc1 [Example 90] .
6.08

Give a short answer stating reported pIC50 for O=C(N[C@@H](Cc1cn(-c2ccc([N+](=O)[O-])cc2[N+](=O)[O-])cn1)C(=O)NCCc1ccc(O)c(O)c1)c1ccc(O)c(O)c1 [Example 21] .
6.82

Give a short answer stating reported pIC50 for Cc1ccc(C(NC(=O)CC[C@H](NC(=O)/C=C/c2ccc(O)c(O)c2)C(=O)NCc2ccc(O)c(O)c2)(c2ccccc2)c2ccccc2)cc1 [Example 33] .
6.81

Give a short answer stating reported pIC50 for O=C(/C=C/c1c[nH]c2ccccc12)N[C@@H](Cc1cn(C(c2ccccc2)(c2ccccc2)c2ccccc2)cn1)C(=O)NCCc1ccc(O)c(O)c1 [Example 86] .
5.70

Give a short answer stating reported pIC50 for O=C(/C=C/c1ccc(O)c(O)c1)N[C@@H](CSC(c1ccccc1)(c1ccccc1)c1ccccc1)C(=O)NCCc1ccc(O)c(O)c1 [Example 12] .
6.33

Give a short answer stating reported pIC50 for O=C(C=Cc1ccc(O)c(O)c1)NC(Cc1cn(C(c2ccccc2)(c2ccccc2)c2ccccc2)cn1)C(=O)NCCc1ccc(O)c(O)c1 (centres unmarked) [Example 13] .
6.43

Give a short answer stating reported pIC50 for O=C(N[C@@H](Cc1ccc(O)cc1)C(=O)NCCc1ccc(O)c(O)c1)c1cc(O)c2cccc(O)c2n1 [Example 58] .
5.92

Give a short answer stating reported pIC50 for O=C(N[C@@H](Cc1ccc(O)c(O)c1)C(=O)NCCc1ccc(O)c(O)c1)c1cc2cccc(O)c2cc1O [Example 60] .
5.74

Measured values drawn from patent US6528655B1 for this set.
